ASSAY PROTOCOL: Vapor pressure of fragrance components
TEST READOUT: Vapor Pressure mm/Hg at 25° C. (mm/Hg)

MOLECULE: CC(=O)C1(C)CC2=C(CCCC2(C)C)CC1C (stereo not drawn)
OUTPUT UNIT: mm/Hg
Vapor Pressure mm/Hg at 25° C.: 0.002
//
MOLECULE: CC(C)=CCCC(C)CCO (stereo not drawn)
OUTPUT UNIT: mm/Hg
Vapor Pressure mm/Hg at 25° C.: 0.009
//
MOLECULE: CC12CCC(CC1=O)C2(C)C (stereo not drawn)
OUTPUT UNIT: mm/Hg
Vapor Pressure mm/Hg at 25° C.: 0.1
//
MOLECULE: CC(=O)OC1CCC(C(C)(C)C)CC1 (stereo not drawn)
OUTPUT UNIT: mm/Hg
Vapor Pressure mm/Hg at 25° C.: 0.03
//
MOLECULE: C=CC(C)CCCC(C)(C)O (stereo not drawn) [dihydromyrcenol]
OUTPUT UNIT: mm/Hg
Vapor Pressure mm/Hg at 25° C.: 0.09

1: CCCCCCC(C=O)=Cc1ccccc1
2: CCCCCCCCCC(C)C=O (stereo not drawn)
Query: Select one. Lower Vapor Pressure mm/Hg at 25° C.: 1 or 2 Which one? Tell me its label.
Reply: 1
(1: 0.0003 mm/Hg, 2: 0.009 mm/Hg)

P: CC(=O)OCc1ccccc1 [benzyl acetate]
Q: CC/C=C\CCOC(=O)c1ccccc1O [cis-3-hexenyl salicylate]
R: CC1=CC(C)C(C=O)CC1 (stereo not drawn)
S: CC1=CCC(C(C)(C)O)CC1 (stereo not drawn)
T: CC(=O)/C=C/C1=C(C)CCCC1(C)C
Query: Arrange these 5 molecules in increasing order of Vapor Pressure mm/Hg at 25° C.. Show the ranking through the labels, in the order asked for.
Reply: Q, T, S, P, R
(Q: 0.0008 mm/Hg, T: 0.006 mm/Hg, S: 0.02 mm/Hg, P: 0.1 mm/Hg, R: 0.3 mm/Hg)
